- measured.on: T1, Peptide G (rat PAR-2), unbiotinylated (Rat (Rattus norvegicus))
- T1 construct: also called Peptide G No Biotin
- T1 peptide: GPNSKGRSLIGRLDTP
- test.description: peptide ELISA titration
The binders listed here are annotated with their EC50.
Supply the numeric figure in pM, leaving out any unit text.

H4H583P (antibody, human IgG4, V domains shown, also called H1H583P variable regions) VH: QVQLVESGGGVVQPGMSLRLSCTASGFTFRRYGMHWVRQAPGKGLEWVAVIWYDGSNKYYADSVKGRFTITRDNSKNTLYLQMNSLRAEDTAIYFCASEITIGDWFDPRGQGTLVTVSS VL: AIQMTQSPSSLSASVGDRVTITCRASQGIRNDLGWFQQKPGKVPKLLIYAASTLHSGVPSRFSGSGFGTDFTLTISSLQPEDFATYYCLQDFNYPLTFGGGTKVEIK = 12

Fill in: EC50 of H4H578P (antibody, human IgG4, V domains shown, also called H1H578P variable regions) VH: QVQLVESGGGVVQPGMSLRLSCAASGFTFRRYGMHWVRQAPGKGLEWVAVIWYDGSNKYYVDSVKGRFTISRDNSKNTLYLQMNSLRAEDTAVYYCASEITVGDWFDPWGQGTLVTVSS VL: AIQMTQSPSSLSASVGDRVTITCRASQGIRNDLGWYQQKPGKAPKLLIYAASSLHSGVPSRFSGSGSGTDFTLTISSLQPEDFATYYCLQDFNYPLTFGGGTKVEIK is ___
46

Fill in: EC50 of H4H579P (antibody, human IgG4, V domains shown, also called H1H579P variable regions) VH: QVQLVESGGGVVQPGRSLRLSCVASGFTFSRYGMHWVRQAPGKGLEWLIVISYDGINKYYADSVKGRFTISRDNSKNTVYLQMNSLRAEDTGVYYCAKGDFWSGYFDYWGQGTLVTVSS VL: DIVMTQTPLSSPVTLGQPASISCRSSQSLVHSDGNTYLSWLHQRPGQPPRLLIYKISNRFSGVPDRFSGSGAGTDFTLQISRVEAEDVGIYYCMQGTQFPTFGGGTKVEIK is ___
55

Fill in: EC50 of H4H581P (antibody, human IgG4, V domains shown, also called mAb H4H581P; H1H581P variable regions) VH: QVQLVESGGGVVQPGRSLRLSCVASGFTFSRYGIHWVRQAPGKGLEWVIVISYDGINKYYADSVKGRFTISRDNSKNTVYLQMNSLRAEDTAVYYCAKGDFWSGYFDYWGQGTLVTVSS VL: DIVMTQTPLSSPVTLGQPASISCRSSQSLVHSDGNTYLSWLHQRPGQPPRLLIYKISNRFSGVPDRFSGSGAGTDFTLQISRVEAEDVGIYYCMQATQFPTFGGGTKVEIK is ___
20
